// growth inhibition lookup, one value per entry
# measurement.protocol: NCI Yeast Anticancer Drug Screen. Data for the bub3 strain (AID 167)
# assay.conditions: S. cerevisiae bub3 mutant strain, at 50.0 µM, stronger effect = higher value
Compounds without any hit were thinned out: in the full panel of roughly 79,000, 15% have a hit.

compound: COc1ccc(CC(C)=C(C#N)C#N)cc1OC
growth inhibition / %: -0.05

compound: O=C(O)/C1=C/CCC(C(=O)O)CCC1 (configuration not stated)
growth inhibition / %: -12.5

compound: COc1cc2oc(-c3ccc(O)cc3)c(OC3OC(C)C(O)C(O)C3O)c(=O)c2c(O)c1OC (configuration not stated)
growth inhibition / %: -7.95

compound: OC(CCN1CCC2CCC(C2)C1)(c1ccccc1)c1ccco1 (configuration not stated)
growth inhibition / %: -0.05

compound: CN1N=C(N)c2cn(C3OC(COP(=O)(O)O)C(O)C3O)c3ncnc1c23 (configuration not stated)
growth inhibition / %: 11.3

compound: Cc1[nH]c(=O)nc(CC(O)(c2ccccc2)c2ccccc2)c1-c1ccccc1
growth inhibition / %: -6.05

compound: COc1c(O)c(/C=C/C(=O)NN)cc2ccoc12
growth inhibition / %: 15.8

compound: CN(C=C(c1ccccc1)c1ccccc1)c1ccccc1
growth inhibition / %: -12.8

compound: ClC(Cl)(Cl)c1ccc(C2OCCO2)cc1
growth inhibition / %: -22

compound: S=C(Nc1ccccc1)N1CC2C3CCC(O3)C2C1 (configuration not stated)
growth inhibition / %: 22.5

compound: CC(=O)CC(=O)Nc1ccc(Cc2ccc(NC(C)=O)cc2)cc1
growth inhibition / %: 2.8

compound: COc1ccc(/C=N/n2cnc3c(c2=O)SC(=C(C#N)C#N)N3c2ccccc2)cc1
growth inhibition / %: -19.5

* * *

# measurement.protocol: NCI Yeast Anticancer Drug Screen. Data for the bub3 strain (AID 167)
# assay.conditions: S. cerevisiae bub3 mutant strain, at 50.0 µM
The panel holds about 79,000 compounds, 15% with a hit somewhere; the sample as a whole holds those more often. Active and inactive are the calls of the source. Cut-off read from the data, not from the text of the source: active = growth inhibition above about 70%; inactive = the rest.
Outcome codes: yes = active, no = inactive

compound: CCOC(=O)c1ccc(NC(=O)Oc2ccc(SC)cc2)cc1
qualitative.label: no
--
compound: O=S(=O)(CCl)Nc1ccncc1
qualitative.label: no
--
compound: CCCC(=O)OC1C=C2N3C(=O)C4CC56C(=CC(OC(C)=O)C7OC75)N4C(=O)C3CC26C2OC12 (stereo unspecified)
qualitative.label: yes
--
compound: COc1ccc(C(O)C(c2ccc(OCc3ccccc3)cc2)c2ccc(OCc3ccccc3)cc2)cc1 (stereo unspecified)
qualitative.label: no
--
compound: O=C(CN1CCOCC1)Nc1cccc(Cl)c1
qualitative.label: no
--
compound: Nc1cc2c3c(cccc3c1)NC2=O
qualitative.label: no
--
compound: CNC(=O)NCCCC(NC(C)=O)C(=O)NCc1ccccc1 (stereo unspecified)
qualitative.label: no
--
compound: CC(=O)OC1CCC2(C)C(CCC3C2CCC2(C)C(c4cccc(=O)o4)CCC32)C1 (stereo unspecified)
qualitative.label: no
--
compound: Clc1ccccc1/C=N/N=C/c1ccccc1Cl
qualitative.label: no
--
compound: O=C(Nc1ccccc1)OC1C(OC(=O)c2ccccc2)OC(COC(=O)c2ccccc2)C1OC(=O)c1ccccc1 (stereo unspecified)
qualitative.label: no
--
compound: CC[N+](C)(CC)CC[N+]1(C)CCCCCCC1
qualitative.label: no
